- System: resveratrol
- EXPERIMENT_NOTES: Percent conversion of substrate by E. coli cells expressing sulfotransferases
- Type: cell-based, Escherichia coli
- SETTINGS: 95 μM resveratrol, M9 medium, overnight 37° C.
- From the text: The concentration of p-courmaric acid (pHCA) and zosteric acid in the supernatant was quantified by high performance (HPLC) and compared to chemical standards. […]
QUANTITY_MEASURED: percent conversion of resveratrol (%)
Answers are plain numbers, in %.

Known results for molecules:
[[record]]
molecule = "SULT1A1 Homo sapiens: aryl sulfotransferase SULT1A1 Homo sapiens (SEQ ID NO: 2) (protein, listed as Homo sapiens) MELIQDTSRPPLEYVKGVPLIKYFAEALGPLQSFQARPDDLLISTYPKSGTTWVSQILDMIYQGGDLEKCHRAPIFMRVPFLEFKAPGIPSGMETLKDTPAPRLLKTHLPLALLPQTLLDQKVKVVYVARNAKDVAVSYYHFYHMAKVHPEPGTWDSFLEKFMVGEVSYGSWYQHVQEWWELSRTHPVLYLFYEDMKENPKREIQKILEFVGRSLPEETVDFMVQHTSFKEMKKNPMTNYTTVPQEFMDHSISPFMRKGMAGDWKTTFTVAQNERFDADYAEKMAGCSLSFRSEL"
quantity_measured = "percent conversion of resveratrol"
val = 36

[[record]]
molecule = "SULT1E1 Gallus gallus domesticus: aryl sulfotransferase SULT1E1 Gallus gallus domesticus (SEQ ID NO: 6) (protein, listed as Gallus gallus) MGNDEVIRQDLGCLYDIPLYKCFVAGWPQVEAFQARPDDLLIATYPKSGTTWLSEILDAIYHDGDLEKCRRDAIYNRVPFLEMKAPGILSGVEQLEKIPSPRLVKTHLPVHLLPASFQEKDCKVIYMARNAKDVVISYYYFYQMAKIHPDPGTLSEFLQAFMDGKVAYGSWYKHVKGWWEKRHEKRLLYLFYEDMKKDPRREIQKILQFLGKEVAEETVARILHHTSFQEMKKNPATNYETMPTELMDHSLSPFMRKGISGDWANHFTVAQNERFDQHYQQQMAGSDLCFQMEA"
quantity_measured = "percent conversion of resveratrol"
val = 100


// next entry
What measured percent conversion of resveratrol goes with SULT1A1 Equus caballus: aryl sulfotransferase SULT1A1 Equus caballus (SEQ ID NO: 3) (protein, listed as Equus caballus) MELIQDTSRPPLKYVKGVPLIKYFAEALGPLQSFQARPDDLLISTYPKSGTTWVSEILDMIYHGGDLEKCRRAPIFIRVPFLEFKAPEIPSGVEVLKDTPAPRLLKTHLPLSLLPQTLLDQKVKVVYLARNAKDVAVSYYHFYRMAKVHPDPGTWDSFLEKFMAGEVSYGSWYKHVQEWWELSHTHPVLYLFYEDMKENPKKEIQKILEFVGRSLPEETLDRIVQHTSFKEMKKNPMANYSTIPCDIMDHNISAFMRKGIAGDWKNTFTVAQNEHFDTDYAEKMAGCKLSFRSEV ?
100

Data origin, for the record: patent US11390894B2
